target: Glutathione S-transferase A1 (Homo sapiens); experiment: Inhibition of recombinant human GSTA1-1 using GSH and CDNB as substrate preincubated for 5 mins followed by substrate addition and measured in the absence of UV irradiation by spectrophotometric analysis
Sequence (P08263 whole entry): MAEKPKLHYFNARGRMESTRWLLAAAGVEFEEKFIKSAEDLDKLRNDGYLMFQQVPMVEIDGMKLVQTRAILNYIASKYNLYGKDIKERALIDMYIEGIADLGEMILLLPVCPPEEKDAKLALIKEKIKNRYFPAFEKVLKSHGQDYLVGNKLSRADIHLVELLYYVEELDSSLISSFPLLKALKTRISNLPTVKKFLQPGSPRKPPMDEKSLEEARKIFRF
measured-quantity: IC50 (µM)
State just the number; it will be interpreted in µM.

Answered examples (5):
sample_smiles=CCCCCCCCCCCCOc1c2cccc1Cc1cc(C(=O)P(=O)(O)O)cc(c1O)Cc1cccc(c1OCCCCCCCCCCCC)Cc1cc(C(=O)P(=O)(O)O)cc(c1O)C2 system_under_test="Glutathione S-transferase A1 (Homo sapiens)" value=0.16
sample_smiles=CCCCOc1c2cccc1Cc1cc(C(=O)P(=O)(O)O)cc(c1O)Cc1cccc(c1OCCCC)Cc1cc(C(=O)P(=O)(O)O)cc(c1O)C2 system_under_test="Glutathione S-transferase A1 (Homo sapiens)" value=10.5
sample_smiles=CCCOc1c2cccc1Cc1cc(C(=O)P(=O)(O)O)cc(c1O)Cc1cccc(c1OCCC)Cc1cccc(c1O)C2 system_under_test="Glutathione S-transferase A1 (Homo sapiens)" value=2.91
sample_smiles=CCCCCCCCOc1c2cccc1Cc1cc(C(=O)P(=O)(O)O)cc(c1O)Cc1cccc(c1OCCCCCCCC)Cc1cc(C(=O)P(=O)(O)O)cc(c1O)C2 system_under_test="Glutathione S-transferase A1 (Homo sapiens)" value=0.28
sample_smiles=CCCOc1c2cccc1Cc1cc(C(O)(P(=O)(O)O)P(=O)(O)O)cc(c1O)Cc1cccc(c1OCCC)Cc1cc(C(=O)P(=O)(O)O)cc(c1O)C2 system_under_test="Glutathione S-transferase A1 (Homo sapiens)" value=5.2

Now look at this entry.
# value lookup — system Glutathione S-transferase A1 (Homo sapiens), readout IC50, item CCCOc1c2cccc1Cc1cc(C(=O)P(=O)(O)O)cc(c1O)Cc1cccc(c1OCCC)Cc1cc(C(=O)P(=O)(O)O)cc(c1O)C2
10.4
